Tested on: modified luciferase
assay-explanation: Luciferase expression in liver, lung, spleen and femur 6 hours after intravenous administration to mice
Type: in vivo
condition-parameters: liver, 6 hours after intravenous 0.5 mpk, mice
measurement-label: Total Flux, Liver

// lookup Total Flux, Liver | system=modified luciferase | key= `CCCC/C=C\CCC(CC/C=C\CCCC)OC(=O)CCCCCCCN(CCO)CCCCCC(=O)OCCCCCCCCCCC` 6.37E+08

Notebook entry, modified luciferase assay: Total Flux, Liver of CCCCCCCCC(CC)OC(=O)CCCCCCCN(CCO)CCCCCCCC(=O)OC(CCCCCCCC)CCCCCCCC (stereo not shown) = ? 5.68E+09

Record lookup: for modified luciferase, what Total Flux, Liver belongs to `CCCCCCCCC(CCCCCCCC)OC(=O)CCCCCCCN(CCO)CCCCCCCC(=O)OC(C)(C)C` ? 8.58E+08

Field: Total Flux, Liver (modified luciferase). Entry: `CCCCCCCCC(CCCCCCCC)OC(=O)CCCCCCCN(CCO)CCCCCCCC(=O)N(C)CCCCCCCC` 5.01E+08

For the record `CCCCCCCCCOC(=O)CCCCCCCN(CCCCCCCC(=O)OC(CCCCCCCC)CCCCCCCC)CCCNC(=O)N(C)C` , what value of Total Flux, Liver is listed for modified luciferase? 2.30E+08

What Total Flux, Liver appears in the records for this compound with modified luciferase? `CCCCCCCCCOC(=O)CCCCCCCN(CCCCO)CCCCCCCC(=O)OC(CCCCCCCC)CCCCCCCC` 1.84E+09

Please state recorded Total Flux, Liver (tested on modified luciferase) of `CCCCCCCCCOC(=O)CCCCCCCN(CCO)CCCCCCCC(=O)OC(CCC)CCC` 8.71E+04

Could you share what Total Flux, Liver was measured for `CCCCCCCCCN(CCO)CCCCCCCC(=O)OC(CCCCCCCC)CCCCCCCC` , tested on modified luciferase? 1.39E+10

Lab request: please report Total Flux, Liver under test system modified luciferase for `CCCCCCCCCOC(=O)CCCCCCCN(CCO)CCCCCCCC(=O)OC(CCCCCCCC)CCCCCCCC` 2.76E+09

Look up Total Flux, Liver with modified luciferase for this compound: `CCCCCCCCC(CCCCCCCC)OC(=O)CCCCCCCN(CCO)CCCC(=O)OCCCC` 2.49E+07

Test system modified luciferase; read-out Total Flux, Liver; what value for `CCCCCCCCCOC(=O)CCCCCCCN(CCO)CCCCCCC/C=C\C(CCCCCCCC)CCCCCCCC` ? 1.43E+08

Param readout= Total Flux, Liver; system= modified luciferase; entry= `CCCCCC/C=C\COC(=O)CCCCCCCN(CCO)CCCCCCCC(=O)OC/C=C\CCCCCC` ; returns value. 8.27E+05

// map CCCCCCCCCOC(=O)CCCCCCCN(CCCCCCCC(=O)OC(CCCCCCCC)CCCCCCCC)C1CCCCC1O (stereo not shown) to recorded Total Flux, Liver (system: modified luciferase) 4.00E+07

Lab note: need Total Flux, Liver for CCCCCCCCC(CC)OC(=O)CCCN(CCO)CCCCCCCC(=O)OC(CCCCCCCC)CCCCCCCC (stereo not shown) on modified luciferase, anyone have it? 7.97E+08

Notebook: pull reported Total Flux, Liver for modified luciferase, entry CCCCCCCCC(CCCCCCCC)OC(=O)CCCCCCCN(CCO)CCCCCCCC(=O)OCC(CCCCCCC)OC (stereo not shown) 4.39E+09

Report Total Flux, Liver for `CCCCCCCCCOC(=O)CCCCCCCN(CCO)CCCCCCCC(=O)OC(CCCCCC)CCCCCC` tested on modified luciferase. 1.04E+09

Enter reported Total Flux, Liver observed with modified luciferase for `CCCCCCCCCN(CCCCCCCC(=O)OC(CCCCCCCC)CCCCCCCC)CCCn1ccnc1` 7.87E+08

Lab note: need Total Flux, Liver for `CCCCCCCCCOC(=O)CCCCCCCN(CCCCCCCC(=O)OC(CCCCCCCC)CCCCCCCC)CCOCCN(C)C` on modified luciferase, anyone have it? 5.52E+05

Param readout = Total Flux, Liver; param system = modified luciferase; param query = `CCCCCCCCCOC(=O)CCCCCCCN(CCO)CCCCCCCC(=O)OCCCCCCCCC` ; response: value 3.66E+06

Provide the documented Total Flux, Liver with modified luciferase as the system for `CCCCCCCCCOC(=O)CCCCCCCN(CCCCCCCC(=O)OC(CCCCCCCC)CCCCCCCC)CCCNC(=S)NC` 1.11E+09

Quick check: Total Flux, Liver on modified luciferase, item CCCCCCCCCOC(=O)CCCCCCCN(CCCCCCCC(=O)OC(CCCCCCCC)CCCCCCCC)CC(C)O (stereo not shown) ? 3.22E+08

// map CCCCCCCCCOC(=O)CCCCCCCN(CCCCCCCC(=O)OC(CCCCCCCC)CCCCCCCC)CC(O)CC (stereo not shown) to recorded Total Flux, Liver (system: modified luciferase) 2.25E+07

Hi! What's the reported Total Flux, Liver for `CCCCCCCCC(CCCCCCCC)OC(=O)CCCCCCCN(C)CCCCCCCCCC(=O)OCCCCCCC` on modified luciferase? 1.11E+09

modified luciferase / Total Flux, Liver / `CCCCCC/C=C\COC(=O)CCCCCCCN(CCO)CCCCCCCC(=O)OC(CCCCCCCC)CCCCCCCC` : value? 4.19E+09

Identify the measured Total Flux, Liver of `CCCCCCCCCOC(=O)CCCCCCCN(CCCCCCCC(=O)OC(CCCCCCCC)CCCCCCCC)CCN1CCOCC1` for modified luciferase. 8.48E+07

Which Total Flux, Liver is reported with modified luciferase for this entry: `CCCCCCCCCOC(=O)CCCCCCCN(CCCCCCCC(=O)OC(CCCCCCCC)CCCCCCCC)CCOC(C)=O` ? 4.30E+05

State its Total Flux, Liver on modified luciferase: `CCCCCCCCCCCCN(CCO)CCCCCCCCCCCC(=O)OC` 6.48E+04

Notebook: pull reported Total Flux, Liver for modified luciferase, entry CCCCCCCCC(CCCCCCCC)OC(=O)CCCCCCCN(CCO)CCCCCC(=O)OC(CCCCCCCC)C1CC1 (stereo not shown) 5.98E+09

What reported Total Flux, Liver corresponds to `CCCCCCCCCN(CCCO)CCCCCCCC(=O)OC(CCCCCCCC)CCCCCCCC` on modified luciferase? 2.49E+09

Request body: readout Total Flux, Liver, system modified luciferase, query CCCCCCCCC(CCCCCCCC)OC(=O)CCCCCCCN(CCO)CCCC(=O)OC(CCCCC)CCCCCCCC (stereo not shown) . Return the value. 7.93E+08

Record lookup: for modified luciferase, what Total Flux, Liver belongs to CCCCCCCCC(C)OC(=O)CCCCCN(CCO)CCCCCCCC(=O)OC(CCCCCCCC)CCCCCCCC (stereo not shown) ? 2.63E+09
